# assaySystem: Phospholipid hydroperoxide glutathione peroxidase GPX4 (Homo sapiens) (UniProt P36969)
# Sequence (P36969 whole entry, looked up): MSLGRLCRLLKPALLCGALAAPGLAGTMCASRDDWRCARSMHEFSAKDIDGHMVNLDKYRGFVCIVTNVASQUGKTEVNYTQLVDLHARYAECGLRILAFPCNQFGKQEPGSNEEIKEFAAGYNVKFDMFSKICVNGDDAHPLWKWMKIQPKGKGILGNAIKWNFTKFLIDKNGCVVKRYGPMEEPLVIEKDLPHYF
# assayNotes: Primary qHTS Assay for Inhibitors of Recombinant Selenoprotein Glutathione Peroxidase 4 (GPX4) (AID 1845192); further: nearly all actives have a fitted effect of over 65% in size
# measurementConditions: recombinant GPX4, GR-coupled NADPH fluorescence, 15 min; series mostly up to 50 µM
Records with an inconclusive call do not appear. The source made the active and inactive calls. The call rests on the fitted dose curve; in most records, active means well fitted inhibition curve with a large enough effect; inconclusive means small, poorly fitted or top-dose-only effect; inactive means flat fitted curve, though single readings scatter.
Classes used: TRUE for active, FALSE for inactive

compound | qualitativeLabel
C=CCOc1ccc(CC(=O)O)cc1Cl | FALSE
CNC(=O)c1c(I)c(C(=O)NCC(=O)Nc2c(I)c(C(=O)O)c(I)c(C(=O)NCCO)c2I)c(I)c(N(C)C(C)=O)c1I | FALSE
C[N@+]12CCCC[C@@H]1CCC(=C(c1cccs1)c1cccs1)C2 | FALSE
CC(C)(C)c1ccc(CN2CCN(C(c3ccccc3)c3ccc(Cl)cc3)CC2)cc1 (stereo not given) | FALSE
CO/N=C(\C(=O)N[C@@H]1C(=O)N2C(C(=O)O)=C(C[N+]3(C)CCCC3)CS[C@H]12)c1csc(N)n1 | TRUE

###

# Test system: CP201
# assayNotes: qHTS profiling for inhibitors of Plasmodium falciparum proliferation (AID 504749); further: nearly all actives have a fitted effect of over 60% in size
# measurementConditions: P. falciparum in erythrocytes, SYBR Green DNA, 72 h; series mostly up to 28.7 µM
Records with an inconclusive call do not appear. Calls of active or inactive are those of the source. Calls come from the whole dose curve; as a rule, active = well fitted inhibition curve with a large enough effect; inconclusive = small, poorly fitted or top-dose-only effect; inactive = flat fitted curve, though single readings scatter.
Outcomes: Y (active), N (inactive)

compound | qualitativeLabel
C[C@@](Cc1ccc(O)c(O)c1)(NN)C(=O)O | N
CCCC(=O)O | N
CCSc1ccc2c(c1)N(CCCN1CCN(C)CC1)c1ccccc1S2 | N
O.O.O.O.O.O.O.O=S(=O)([O-])[O-].[Co+2] | Y
OC/C=C/c1ccccc1 | N
O=c1n(CC2CO2)c(=O)n(CC2CO2)c(=O)n1CC1CO1 (stereo unspecified) | N
CC(C)(Oc1ccc(C2CCCc3ccccc32)cc1)C(=O)O (stereo unspecified) | N
N[C@@H](Cc1cc(I)c(Oc2ccc(O)c(I)c2)c(I)c1)C(=O)O | N
CC(=O)N[C@@H]1C(O[C@H]2O[C@H](C(=O)O)C(O)[C@H](O)[C@H]2O)[C@H](O)[C@@H](CO)O[C@H]1O[C@@H]1C(C(=O)O)O[C@@H](O[C@H]2[C@H](O)[C@@H](CO)OC(O)[C@@H]2NC(C)=O)[C@H](O)[C@H]1O (stereo partly specified) | N
O=C(O)c1cc(N=Nc2ccc(O)c(C(=O)O)c2)ccc1O | N
C=CC(=O)O | N
CC(=O)Oc1cccc2c1C(=O)c1c(OC(C)=O)cc(C(=O)O)cc1C2=O | N
O=C(CCCCCCCCCCCCC1CCCC1)Nc1ccc(S(=O)(=O)c2ccc(NC(=O)CCCCCCCCCCCCC3CCCC3)cc2)cc1 | N
CC(=O)Nc1ccc(OC(C)=O)cc1 | N
O=C(O)CCC/C=C\C[C@@H]1[C@@H](/C=C/[C@@H](O)COc2cccc(C(F)(F)F)c2)[C@H](O)C[C@@H]1O | N
CCCCC[C@H](O)/C=C/[C@H]1[C@H](O)CC(=O)[C@@H]1C/C=C\CCCC(=O)O | N
OC[C@H]1O[C@@](CO)(O[C@H]2O[C@H](CO)[C@@H](O)[C@H](O)[C@H]2O)[C@@H](O)[C@@H]1O | N
O=C(O)C1=C(CSc2nnnn2CS(=O)(=O)O)CS[C@@H]2[C@H](NC(=O)[C@H](O)c3ccccc3)C(=O)N12 | N
Nc1ncnc2c1ncn2[C@H]1CC[C@@H](CO)O1 | N
O=[n+]1ccn([O-])c2ccccc21 | N
CC/C=C\C/C=C\C/C=C\C/C=C\C/C=C\CCCC(=O)O | N
